target: T1, Human FXIa protein (activated coagulation factor XI) (human, UniProt P03951 19-625); assay: SPR (Biacore T200), antibody captured on Protein A chip, FXIa as analyte, 1:1 Langmuir fit
T1 construct: Bought from Enzyme Research Laboratories (HFXIa 1111a); also called factor XIa; HFXIa 1111a
assay.endpoint: kon (M⁻¹ s⁻¹)
Your answer is read as M⁻¹ s⁻¹, so omit the unit and give the number.

According to the records, this binder antibody 3871 (antibody, V domains shown, Humanized from 3807: VH is 3807-VH1 and VL is 3807-VL3) VH: QVQLVQSGAEVKKPGSSVKVSCKASGFNIKDDYMHWVRQAPGQGLEWMGWIDPENGDTEYASKFQGRVTITADESTSTAYMELSSLRSEDTAVYYCLYGNFYYFDYWGQGTTVTVSS VL: EIVLTQSPATLSLSPGERATLSCSASSSINYMHWYQQKPGQAPKRWIYDTSKLASGVPARFSGSGSGTDFTLTISSLEPEDFAVYYCHQRSFSPLTFGQGTKLEIK displays kon of 1.24e+06

According to the records, this binder antibody 1267 (Kg3g) (antibody, human IgG1, kappa, V domains shown, Heavy chain is VH + human CH1 + IgG1 Fc) VH: QVQLVQSGAEVKKPGASVKVSCKVSGYTLTSILMHWVRQAPGKGLEWMGGFDPQDGETVYAQKFQGRVTMTEDTSTDTAYMELSSLRSEDTAVYYCATDPHRTWWRYFDWLYPRGMDVWGQGTTVTVSS VL: EIVLTQSPGTLSLSPGERATLSCRASQTVGKNYLAWYQQKPGQAPRLLIYEASVRALGIPDRFSGSGSGTDFTLTISRLEPEDFAVYYCQQFRSYPYTFGQGTKVEIKR displays kon of 873000
